- system: human P2X3 receptor (Homo sapiens (Human))
- Sequence (P56373 whole entry): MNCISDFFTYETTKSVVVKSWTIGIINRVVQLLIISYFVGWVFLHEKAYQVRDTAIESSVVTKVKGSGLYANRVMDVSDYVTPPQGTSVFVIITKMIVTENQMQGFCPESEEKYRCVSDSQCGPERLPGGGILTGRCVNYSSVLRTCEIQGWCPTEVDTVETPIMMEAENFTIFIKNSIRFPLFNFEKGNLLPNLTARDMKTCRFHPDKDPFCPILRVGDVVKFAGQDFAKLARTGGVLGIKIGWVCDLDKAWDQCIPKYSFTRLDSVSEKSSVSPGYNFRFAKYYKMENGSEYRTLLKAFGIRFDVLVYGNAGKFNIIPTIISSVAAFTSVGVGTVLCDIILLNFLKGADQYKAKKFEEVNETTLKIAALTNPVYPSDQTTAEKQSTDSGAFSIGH
- measurement.protocol: Evaluation of human P2X3 receptor inhibitory activity (Fluo-3 calcium fluorescence, FDSS 3000, ATP stimulation);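 note: stimulus was 50 nM ATP with fluorescence followed for 3 min, and the response per well was peak post-ATP fluorescence divided by the reading at measurement start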
- Format: cell-based
- test.settings: C6BU-1 cells stably expressing human P2X3 receptor
pIC50: −log10 of the molar value.
Entry flag: Fulfilled if pIC50 reaches 8; Not fulfilled if it does not.

Examples with answers:
- O=C(O)c1cccc(Oc2ccc(/N=c3\[nH]c(=O)[nH]c(=O)n3Cc3ccc(Cl)cc3)cc2)c1: Not fulfilled
- CCn1c(=O)[nH]/c(=N\c2ccc(Oc3nccc(OC)n3)cc2)n(Cc2ccc(Cl)cc2)c1=O: Not fulfilled
- CCn1c(=O)[nH]/c(=N\c2ccc(Oc3cccc(C(=O)O)n3)cc2)n(Cc2ccc(C)cc2)c1=O: Fulfilled
- COC(=O)C(C)(C)n1c(=O)[nH]/c(=N\c2ccc(OC(C)C)c(Cl)c2)n(Cc2ccc(Cl)cc2)c1=O: Fulfilled

Prompt: Quick check, pIC50 >= 8? COCCOc1ccc(/N=c2\[nH]c(=O)n(C[C@H](C)C(=O)O)c(=O)n2Cc2ccc(Cl)cc2)cc1Cl
Completion: Not fulfilled

The reported measurements were obtained from patent US9718790B2.
